Method: Baboon [^18F]FNDP dynamic PET, baseline scans with kinetic modelling (2TCM, 1TCM, Logan)
Format: in vivo, baboon (Papio anubis)
Assay Conditions: male, baboon (Papio anubis), brain: hypothalamus, intravenous, Hypothalamus; baseline, mean ± SD of 3 baboons; read-out: 1TCM VT
Property Label: Kp
Could you keep your reply to the number by itself?

Query: Kp for O=C(NCCC(c1ccccc1)c1ccccc1)c1ccc([18F])nc1 [[^18F]FNDP] ?
Response: 7.77

* * *

System: soluble epoxide hydrolase (sEH)
Method: Baboon [^18F]FNDP dynamic PET, baseline scans with kinetic modelling (2TCM, 1TCM, Logan)
Format: in vivo, baboon (Papio anubis)
Assay Conditions: male, baboon (Papio anubis), brain (white matter), intravenous, White matter; baseline, mean ± SD of 3 baboons; read-out: 2TCM VT
Property Label: Kp
In your answer, state the number alone without any accompanying words.

Query: Write down the reported Kp of O=C(NCCC(c1ccccc1)c1ccccc1)c1ccc([18F])nc1 [[^18F]FNDP] , test system: soluble epoxide hydrolase (sEH).
Response: 9.29

* * *

Method: Baboon [^18F]FNDP dynamic PET, baseline scans with kinetic modelling (2TCM, 1TCM, Logan)
Type: in vivo, baboon (Papio anubis)
Assay Conditions: male, baboon (Papio anubis), brain: amygdala, intravenous, Amygdala; baseline, mean ± SD of 3 baboons; read-out: 2TCM VT
Property Label: Kp
Respond using a number only.

Query: Fill in the blank: the reported Kp of O=C(NCCC(c1ccccc1)c1ccccc1)c1ccc([18F])nc1 [[^18F]FNDP] is ____.
Response: 12.5

* * *

Method: Baboon [^18F]FNDP dynamic PET, baseline scans with kinetic modelling (2TCM, 1TCM, Logan)
Assay type: in vivo, baboon (Papio anubis)
Assay Conditions: male, baboon (Papio anubis), brain: caudate, intravenous, Caudate; baseline, mean ± SD of 3 baboons; read-out: Logan VT
Protocol: PET images were acquired using a CPS/CTI high-resolution research tomograph (HRRT), which has an axial resolution (FWHM) of 2.4 mm and in-plane resolution of 2.4–2.8 mm. […] These blocking studies were performed 27 to 43 days apart from each other to ensure full animal recovery. The animals had no food for 12 h prior to each PET study. […] Physiological vital signs including heart rate, blood pressure, electrocardiogram, and oxygen saturation were monitored continuously throughout the study. […]
Property Label: Kp
Number only, no unit.

Query: Could you tell me which Kp is on file for O=C(NCCC(c1ccccc1)c1ccccc1)c1ccc([18F])nc1 [[^18F]FNDP] ?
Response: 13.3

* * *

Test system: soluble epoxide hydrolase (sEH)
Method: Baboon [^18F]FNDP dynamic PET, baseline scans with kinetic modelling (2TCM, 1TCM, Logan)
Assay type: in vivo, baboon (Papio anubis)
Assay Conditions: male, baboon (Papio anubis), brain (white matter), intravenous, White matter; baseline, mean ± SD of 3 baboons; read-out: 1TCM VT
Property Label: Kp

Query: Could you tell me which Kp is on file for O=C(NCCC(c1ccccc1)c1ccccc1)c1ccc([18F])nc1 [[^18F]FNDP] ?
Response: 8.43

* * *

System: soluble epoxide hydrolase (sEH)
Method: Baboon [^18F]FNDP dynamic PET, baseline scans with kinetic modelling (2TCM, 1TCM, Logan)
Type: in vivo, baboon (Papio anubis)
Assay Conditions: male, baboon (Papio anubis), brain, frontal gyrus, intravenous, Frontal gyrus; baseline, mean ± SD of 3 baboons; read-out: Logan VT
Property Label: Kp
Format: numeric value only, no unit, no commentary.

Query: Requested field: Kp. Item: O=C(NCCC(c1ccccc1)c1ccccc1)c1ccc([18F])nc1 [[^18F]FNDP]
Response: 10.3

* * *

System: soluble epoxide hydrolase (sEH)
Method: Baboon [^18F]FNDP dynamic PET, baseline scans with kinetic modelling (2TCM, 1TCM, Logan)
Format: in vivo, baboon (Papio anubis)
Assay Conditions: male, baboon (Papio anubis), brain, temporal gyrus, intravenous, Temporal gyrus; baseline, mean ± SD of 3 baboons; read-out: Logan VT
Property Label: Kp
I'd appreciate a reply containing only the number, no unit.

Query: What value of Kp on soluble epoxide hydrolase (sEH) does O=C(NCCC(c1ccccc1)c1ccccc1)c1ccc([18F])nc1 [[^18F]FNDP] have?
Response: 9.52

* * *

Method: Baboon [^18F]FNDP dynamic PET, baseline scans with kinetic modelling (2TCM, 1TCM, Logan)
Type: in vivo, baboon (Papio anubis)
Assay Conditions: male, baboon (Papio anubis), brain: hippocampus, intravenous, Hippocampus; baseline, mean ± SD of 3 baboons; read-out: 1TCM VT
Property Label: Kp
// response body must contain only the number

Query: Entry O=C(NCCC(c1ccccc1)c1ccccc1)c1ccc([18F])nc1 [[^18F]FNDP] has what Kp?
Response: 10.3

* * *

Test system: soluble epoxide hydrolase (sEH)
Method: Baboon [^18F]FNDP dynamic PET, baseline scans with kinetic modelling (2TCM, 1TCM, Logan)
Assay type: in vivo, baboon (Papio anubis)
Assay Conditions: male, baboon (Papio anubis), brain (occipital cortex), intravenous, Occipital cortex; baseline, mean ± SD of 3 baboons; read-out: 2TCM VT
Property Label: Kp
A bare number is all that is needed in reply.

Query: Quick one: Kp for O=C(NCCC(c1ccccc1)c1ccccc1)c1ccc([18F])nc1 [[^18F]FNDP] ?
Response: 7.82

* * *

Test system: soluble epoxide hydrolase (sEH)
Method: Baboon [^18F]FNDP dynamic PET, baseline scans with kinetic modelling (2TCM, 1TCM, Logan)
Assay type: in vivo, baboon (Papio anubis)
Assay Conditions: male, baboon (Papio anubis), brain, corpus callosum, intravenous, Corpus callosum; baseline, mean ± SD of 3 baboons; read-out: 2TCM VT
Property Label: Kp

Query: Request: Kp, test system soluble epoxide hydrolase (sEH), entry O=C(NCCC(c1ccccc1)c1ccccc1)c1ccc([18F])nc1 [[^18F]FNDP]
Response: 9.28

* * *

Tested on: soluble epoxide hydrolase (sEH)
Method: Baboon [^18F]FNDP dynamic PET, baseline scans with kinetic modelling (2TCM, 1TCM, Logan)
Type: in vivo, baboon (Papio anubis)
Assay Conditions: male, baboon (Papio anubis), brain (globus pallidus), intravenous, Globus pallidus; baseline, mean ± SD of 3 baboons; read-out: 1TCM VT
Property Label: Kp

Query: Give recorded Kp with soluble epoxide hydrolase (sEH) for the following compound: O=C(NCCC(c1ccccc1)c1ccccc1)c1ccc([18F])nc1 [[^18F]FNDP]
Response: 9.07

* * *

System: soluble epoxide hydrolase (sEH)
Method: Baboon [^18F]FNDP dynamic PET, baseline scans with kinetic modelling (2TCM, 1TCM, Logan)
Assay type: in vivo, baboon (Papio anubis)
Assay Conditions: male, baboon (Papio anubis), brain, intravenous, baboon brain, baseline; read-out: baseline VT
Property Label: Kp
// return a plain number; no unit text

Query: Under soluble epoxide hydrolase (sEH): Kp value of O=C(NCCC(c1ccccc1)c1ccccc1)c1ccc([18F])nc1 [[^18F]FNDP] ?
Response: 10.9

* * *

Test system: soluble epoxide hydrolase (sEH)
Method: Baboon [^18F]FNDP dynamic PET, baseline scans with kinetic modelling (2TCM, 1TCM, Logan)
Assay type: in vivo, baboon (Papio anubis)
Assay Conditions: male, baboon (Papio anubis), brain, frontal gyrus, intravenous, Frontal gyrus; baseline, mean ± SD of 3 baboons; read-out: 2TCM VT
Property Label: Kp
The answer should be a number; do not append a unit.

Query: For the record O=C(NCCC(c1ccccc1)c1ccccc1)c1ccc([18F])nc1 [[^18F]FNDP] , what value of Kp is listed for soluble epoxide hydrolase (sEH)?
Response: 10.5

* * *

Tested on: soluble epoxide hydrolase (sEH)
Method: Baboon [^18F]FNDP dynamic PET, baseline scans with kinetic modelling (2TCM, 1TCM, Logan)
Format: in vivo, baboon (Papio anubis)
Assay Conditions: male, baboon (Papio anubis), brain (globus pallidus), intravenous, Globus pallidus; baseline, mean ± SD of 3 baboons; read-out: 2TCM VT
Property Label: Kp
Answer using only a numeral; do not append any unit.

Query: Request body: readout Kp, system soluble epoxide hydrolase (sEH), query O=C(NCCC(c1ccccc1)c1ccccc1)c1ccc([18F])nc1 [[^18F]FNDP] . Return the value.
Response: 9.74

* * *

Method: Baboon [^18F]FNDP dynamic PET, baseline scans with kinetic modelling (2TCM, 1TCM, Logan)
Format: in vivo, baboon (Papio anubis)
Assay Conditions: male, baboon (Papio anubis), brain: hypothalamus, intravenous, Hypothalamus; baseline, mean ± SD of 3 baboons; read-out: 2TCM VT
Property Label: Kp
Lab note: write the figure by itself, no unit.

Query: Requested read-out: Kp. Entry: O=C(NCCC(c1ccccc1)c1ccccc1)c1ccc([18F])nc1 [[^18F]FNDP]
Response: 8.32

* * *

Method: Baboon [^18F]FNDP dynamic PET, baseline scans with kinetic modelling (2TCM, 1TCM, Logan)
Assay type: in vivo, baboon (Papio anubis)
Assay Conditions: male, baboon (Papio anubis), brain: thalamus, intravenous, Thalamus; baseline, mean ± SD of 3 baboons; read-out: 2TCM VT
Property Label: Kp
Lab note: jot the number down without any unit.

Query: What measured Kp goes with O=C(NCCC(c1ccccc1)c1ccccc1)c1ccc([18F])nc1 [[^18F]FNDP] ?
Response: 7.9

* * *

Method: Baboon [^18F]FNDP dynamic PET, baseline scans with kinetic modelling (2TCM, 1TCM, Logan)
Format: in vivo, baboon (Papio anubis)
Assay Conditions: male, baboon (Papio anubis), brain: cerebellum, intravenous, Cerebellum; baseline, mean ± SD of 3 baboons; read-out: Logan VT
Property Label: Kp
Keep the answer to the number alone.

Query: Please give the measured Kp for this compound: O=C(NCCC(c1ccccc1)c1ccccc1)c1ccc([18F])nc1 [[^18F]FNDP]
Response: 7.63
